Assign ratio of Nav 1.5:Nav 1.7 potency, determined by PatchXpress measurement to each entry below.
target: human Nav1.5 channels stably expressed in HEK 293 cells (Homo sapiens, UniProt Q14524); construct: expressed in transfected cells; assay: PatchXpress 7000 automated patch-clamp, sodium current; assay type: cell-based; conditions: selectivity over Nav1.5
Sequence (Q14524 whole entry): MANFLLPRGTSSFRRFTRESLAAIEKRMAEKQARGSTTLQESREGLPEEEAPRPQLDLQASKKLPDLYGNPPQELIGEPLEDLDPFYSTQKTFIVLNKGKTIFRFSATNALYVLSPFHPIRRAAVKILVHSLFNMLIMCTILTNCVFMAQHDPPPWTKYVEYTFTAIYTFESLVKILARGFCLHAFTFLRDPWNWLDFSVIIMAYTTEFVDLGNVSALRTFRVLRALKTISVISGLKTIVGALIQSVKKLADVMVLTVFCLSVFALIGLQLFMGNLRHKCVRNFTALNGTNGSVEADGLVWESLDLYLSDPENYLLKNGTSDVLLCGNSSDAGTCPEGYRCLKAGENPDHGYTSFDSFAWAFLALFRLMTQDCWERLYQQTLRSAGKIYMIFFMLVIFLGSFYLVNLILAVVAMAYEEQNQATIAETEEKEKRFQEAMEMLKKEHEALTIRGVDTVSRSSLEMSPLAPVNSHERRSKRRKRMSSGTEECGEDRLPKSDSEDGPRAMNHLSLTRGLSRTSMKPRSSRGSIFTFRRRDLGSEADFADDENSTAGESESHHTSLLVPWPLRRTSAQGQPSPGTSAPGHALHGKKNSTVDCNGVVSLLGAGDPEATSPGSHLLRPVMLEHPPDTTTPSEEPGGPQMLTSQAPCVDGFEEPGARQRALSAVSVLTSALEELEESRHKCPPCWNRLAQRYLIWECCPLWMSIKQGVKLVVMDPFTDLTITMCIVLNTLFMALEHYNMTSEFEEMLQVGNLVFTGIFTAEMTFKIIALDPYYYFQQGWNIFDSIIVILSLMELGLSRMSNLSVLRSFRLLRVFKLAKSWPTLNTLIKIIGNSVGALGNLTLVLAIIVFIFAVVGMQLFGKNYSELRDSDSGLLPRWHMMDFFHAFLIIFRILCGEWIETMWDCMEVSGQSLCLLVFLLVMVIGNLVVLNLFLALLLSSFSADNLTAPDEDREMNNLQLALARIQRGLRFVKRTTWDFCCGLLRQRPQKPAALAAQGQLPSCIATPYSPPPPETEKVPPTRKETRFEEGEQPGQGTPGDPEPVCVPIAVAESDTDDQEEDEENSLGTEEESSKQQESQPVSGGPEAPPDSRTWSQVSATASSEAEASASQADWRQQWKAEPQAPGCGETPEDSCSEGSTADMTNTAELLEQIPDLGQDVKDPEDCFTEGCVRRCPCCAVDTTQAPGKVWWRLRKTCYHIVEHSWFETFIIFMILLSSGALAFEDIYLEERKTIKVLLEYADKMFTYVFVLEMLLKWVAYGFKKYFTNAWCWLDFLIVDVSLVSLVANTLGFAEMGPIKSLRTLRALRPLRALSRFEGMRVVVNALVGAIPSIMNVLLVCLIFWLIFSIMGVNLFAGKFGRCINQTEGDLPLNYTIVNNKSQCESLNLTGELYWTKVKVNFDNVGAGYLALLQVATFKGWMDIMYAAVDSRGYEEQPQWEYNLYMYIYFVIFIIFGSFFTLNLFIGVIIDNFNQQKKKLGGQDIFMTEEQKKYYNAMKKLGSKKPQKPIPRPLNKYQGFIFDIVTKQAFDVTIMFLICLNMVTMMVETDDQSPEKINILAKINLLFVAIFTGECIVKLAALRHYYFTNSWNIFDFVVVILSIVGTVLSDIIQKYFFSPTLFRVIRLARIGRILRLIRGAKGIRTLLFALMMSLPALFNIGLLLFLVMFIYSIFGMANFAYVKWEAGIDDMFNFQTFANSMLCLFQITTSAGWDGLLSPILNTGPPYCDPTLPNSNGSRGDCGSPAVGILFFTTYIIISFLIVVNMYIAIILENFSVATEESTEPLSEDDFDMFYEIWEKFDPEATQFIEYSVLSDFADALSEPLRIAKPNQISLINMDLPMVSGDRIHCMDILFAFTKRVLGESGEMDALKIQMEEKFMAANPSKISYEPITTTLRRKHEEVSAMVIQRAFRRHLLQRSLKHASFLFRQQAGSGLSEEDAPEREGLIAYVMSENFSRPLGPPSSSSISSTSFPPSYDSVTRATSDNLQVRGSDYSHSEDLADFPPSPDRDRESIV
Numbers only.

Below, each entry is followed by its recorded ratio of Nav 1.5:Nav 1.7 potency, determined by PatchXpress measurement result.
O=c1oc2cc(S(=O)(=O)Nc3ncns3)c(F)cc2n1Cc1cccc2c1CC(N1CCS(=O)(=O)CC1)CC2 (single isomer, unassigned) [Compound 23-6] : 146
C[C@H](c1ccccc1C1=CCN(S(C)(=O)=O)CC1)n1c(=O)oc2cc(S(=O)(=O)Nc3ncns3)c(F)cc21 [Compound 36-3] : 88
C[C@H](c1ccccc1C#C[C@@H](C)O)n1c(=O)oc2cc(S(=O)(=O)Nc3ncns3)c(F)cc21 [Compound 17-7] : 1257
O=C(C1CC1)N1CCc2cccc(Cn3c(=O)oc4cc(S(=O)(=O)Nc5ncns5)ccc43)c2C1 [Compound 10-1] : 14
O=c1oc2cc(S(=O)(=O)Nc3ncns3)c(F)cc2n1[C@H](CCF)c1ccccc1 [Compound 37-3] : 39

Batch of 2 molecules: report ratio of Nav 1.5:Nav 1.7 potency, determined by PatchXpress measurement for each.
1. CC(c1cccc2c1CC(N1CC(F)(F)C1)CC2)n1c(=O)oc2cc(S(=O)(=O)Nc3ncns3)c(F)cc21 (racemic) [Compound 23-12]
2. C[C@H](c1ccccc1C#CC1CCNC1)n1c(=O)oc2cc(S(=O)(=O)Nc3ncns3)c(F)cc21 (some centres unmarked) [Compound 17-14]

Reply text:
1: 46; 2: 1055

====

Target: human Nav1.7 channels stably expressed in HEK 293 cells (Homo sapiens, UniProt Q15858)
Construct: expressed in transfected cells
Sequence (Q15858 whole entry): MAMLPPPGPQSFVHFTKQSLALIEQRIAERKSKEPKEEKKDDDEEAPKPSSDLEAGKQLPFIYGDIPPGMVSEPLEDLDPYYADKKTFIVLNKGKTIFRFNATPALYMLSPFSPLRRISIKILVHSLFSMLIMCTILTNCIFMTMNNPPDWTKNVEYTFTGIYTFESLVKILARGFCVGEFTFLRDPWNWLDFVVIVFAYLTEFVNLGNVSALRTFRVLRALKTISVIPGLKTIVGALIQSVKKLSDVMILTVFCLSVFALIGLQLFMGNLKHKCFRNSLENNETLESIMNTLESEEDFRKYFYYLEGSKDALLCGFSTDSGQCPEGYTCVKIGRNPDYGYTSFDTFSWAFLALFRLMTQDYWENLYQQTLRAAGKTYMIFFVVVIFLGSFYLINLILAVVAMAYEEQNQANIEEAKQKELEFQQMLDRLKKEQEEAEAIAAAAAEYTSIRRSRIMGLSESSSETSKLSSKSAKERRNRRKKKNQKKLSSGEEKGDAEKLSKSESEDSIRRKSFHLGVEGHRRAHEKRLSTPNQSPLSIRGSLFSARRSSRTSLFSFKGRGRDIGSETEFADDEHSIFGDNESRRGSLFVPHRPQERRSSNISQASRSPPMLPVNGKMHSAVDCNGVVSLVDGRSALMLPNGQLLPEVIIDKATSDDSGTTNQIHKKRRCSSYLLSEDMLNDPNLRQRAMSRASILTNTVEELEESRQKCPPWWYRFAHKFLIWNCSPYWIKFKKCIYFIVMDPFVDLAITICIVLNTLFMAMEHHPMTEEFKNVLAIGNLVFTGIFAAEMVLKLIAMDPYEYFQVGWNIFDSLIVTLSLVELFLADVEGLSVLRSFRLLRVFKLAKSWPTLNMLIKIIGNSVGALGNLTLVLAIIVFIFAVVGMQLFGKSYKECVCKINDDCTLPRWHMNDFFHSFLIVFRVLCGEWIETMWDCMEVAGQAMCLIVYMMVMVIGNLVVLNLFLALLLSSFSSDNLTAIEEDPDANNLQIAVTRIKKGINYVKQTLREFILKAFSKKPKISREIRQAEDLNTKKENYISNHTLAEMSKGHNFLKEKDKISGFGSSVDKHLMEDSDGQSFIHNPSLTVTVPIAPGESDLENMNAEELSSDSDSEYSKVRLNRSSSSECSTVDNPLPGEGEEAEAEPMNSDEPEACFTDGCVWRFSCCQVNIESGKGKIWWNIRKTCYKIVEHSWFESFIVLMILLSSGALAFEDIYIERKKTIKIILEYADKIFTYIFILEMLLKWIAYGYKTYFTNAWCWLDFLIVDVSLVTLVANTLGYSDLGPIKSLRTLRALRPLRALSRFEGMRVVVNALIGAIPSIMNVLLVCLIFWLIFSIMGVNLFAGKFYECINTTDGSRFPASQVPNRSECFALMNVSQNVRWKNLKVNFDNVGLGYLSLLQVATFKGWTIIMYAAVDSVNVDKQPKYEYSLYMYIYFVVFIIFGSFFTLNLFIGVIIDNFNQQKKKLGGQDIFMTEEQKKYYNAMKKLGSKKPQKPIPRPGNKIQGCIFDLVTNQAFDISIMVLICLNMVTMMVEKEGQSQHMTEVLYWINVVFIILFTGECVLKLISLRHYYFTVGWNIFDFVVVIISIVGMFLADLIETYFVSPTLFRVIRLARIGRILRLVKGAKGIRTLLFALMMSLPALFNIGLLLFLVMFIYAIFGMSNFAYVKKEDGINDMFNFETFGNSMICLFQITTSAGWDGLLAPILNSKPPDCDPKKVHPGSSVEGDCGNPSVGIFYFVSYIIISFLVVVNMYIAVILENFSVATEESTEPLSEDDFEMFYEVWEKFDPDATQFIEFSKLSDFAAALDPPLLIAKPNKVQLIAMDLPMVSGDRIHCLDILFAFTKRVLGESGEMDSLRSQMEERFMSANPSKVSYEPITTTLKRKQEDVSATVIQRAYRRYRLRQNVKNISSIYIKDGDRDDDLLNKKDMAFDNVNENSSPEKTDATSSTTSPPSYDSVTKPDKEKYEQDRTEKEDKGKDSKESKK
Assay: PatchXpress 7000 automated patch-clamp, sodium current
Format: cell-based
Details: 22° C., read-out: potency for the Nav 1.7 sodium ion channel (as measured by PatchXpress)
Procedure: To measure state and use-dependent sodium channel inhibition, test compounds were further characterized in an automated PatchXpress® assay (Molecular Devices). Two voltage-clamp protocols were used. […] For all electrophysiology experiments, offline analysis was used to correct for current rundown and to determine percent inhibition as a function of drug concentration. IC50 values were determined by fitting to the Hill equation.
Record form. Attribute: IC50. Fill in for each entry.
Give bare numbers, in µM.

C[C@H](c1cccc(-c2ccn(C)n2)c1)n1c(=O)oc2cc(S(=O)(=O)Nc3nccs3)c(F)cc21 : 0.306
C[C@H](c1ccccc1CN1CCC(F)C1)n1c(=O)oc2cc(S(=O)(=O)Nc3ncns3)c(F)cc21 (stereo partly drawn) : 0.132
Cl.O=c1oc2cc(S(=O)(=O)Nc3ncns3)c(F)cc2n1Cc1cccc2c1CC(N1CC(F)(F)C1)CC2 (stereo not drawn) [Compound 19-6, hydrochloride] : 0.118

// each compound listed below needs its IC50
1. C[C@H](c1ccccc1C#Cc1cncn1C)n1c(=O)oc2cc(S(=O)(=O)Nc3ncns3)c(F)cc21
2. O=c1oc2cc(S(=O)(=O)Nc3ncns3)ccc2n1C(c1ccccc1)c1ncco1 (stereo not drawn)
3. NC/C=C/c1cc(Cl)ccc1Cn1c(=O)oc2cc(S(=O)(=O)Nc3ncns3)ccc21
4. CC(=O)NC1CCc2cccc(Cn3c(=O)oc4cc(S(=O)(=O)Nc5ncns5)c(F)cc43)c2C1 (stereo not drawn)
5. O=c1oc2cc(S(=O)(=O)Nc3ncns3)c(F)cc2n1C1COCc2ccccc21 (stereo not drawn)
6. O=c1oc2cc(S(=O)(=O)Nc3ncns3)ccc2n1Cc1cccc(-c2ccc3c(c2)CNCC3)c1

Reply text:
0.064
0.643
0.219
0.175
0.204
0.545

====

biological target: human Nav1.5 channels stably expressed in HEK 293 cells (Homo sapiens); construct: expressed in transfected cells; test: PatchXpress 7000 automated patch-clamp, sodium current; format: cell-based; details: selectivity over Nav1.5
Give ratio of Nav 1.5:Nav 1.7 potency, determined by PatchXpress measurement for every item shown.

Solved entries (count: 2):
Cl.O=c1oc2cc(S(=O)(=O)Nc3ncns3)c(F)cc2n1Cc1cccc2c1CC(N1CC(F)(F)C1)CC2 (stereo not shown) : 103
NC/C=C/c1ccccc1Cn1c(=O)oc2cc(S(=O)(=O)Nc3ncns3)ccc21 : > 89

Please state, for each entry, its recorded ratio of Nav 1.5:Nav 1.7 potency, determined by PatchXpress measurement.
1. O=c1oc2cc(S(=O)(=O)Nc3ncns3)ccc2n1Cc1ccccc1
2. O=c1oc2cc(S(=O)(=O)Nc3ncns3)ccc2n1Cc1ccccc1C1=CCNCCC1

Reply text:
1. > 62
2. > 271

====

Please go through the items and note down their ratio of Nav 1.5:Nav 1.7 potency, determined by PatchXpress measurement.
target: human Nav1.5 channels stably expressed in HEK 293 cells (Homo sapiens); construct: expressed in transfected cells; experiment: PatchXpress 7000 automated patch-clamp, sodium current; type: cell-based; conditions: selectivity over Nav1.5
One number for each entry.

Field: example entries. Status: answers known.
O=c1oc2cc(S(=O)(=O)Nc3nccs3)c(F)cc2n1Cc1cccc2c1CNCC2F (single isomer, unassigned) [Compound 43-28] : 684
NC1CCc2c(cccc2Cn2c(=O)oc3cc(S(=O)(=O)Nc4ncns4)c(F)cc32)C1 (racemic) [Compound 23-8] : 161
C[C@H](c1ccccc1C1(F)CNC1)n1c(=O)oc2cc(S(=O)(=O)Nc3nccs3)c(F)cc21 [Compound 43-23] : 5541
CC1(C)CC(n2c(=O)oc3cc(S(=O)(=O)Nc4ncns4)c(F)cc32)c2ccccc2O1 (stereo not shown) [Compound 39-7] : 137
O=c1oc2cc(S(=O)(=O)Nc3ncns3)c(F)cc2n1Cc1cccc2c1CC(NCc1ccccc1)CC2 (racemic) [Compound 23-23] : 502

Inquiry: Look up ratio of Nav 1.5:Nav 1.7 potency, determined by PatchXpress measurement of NC1CCc2cccc(Cn3c(=O)oc4cc(S(=O)(=O)Nc5ncns5)ccc43)c2C1 (single isomer, unassigned) [Compound 23-10] and report it.
Reply text: 167
